# credit: ChEMBL document CHEMBL1221395

System: A-375
assay name: Cell cycle arrest in human A375 cells assessed as accumulation at S phase after 24 hrs by FACS flow cytometry
Set-up: concentration or dose not given beside the values
endpoint: Activity (%)
Report the figure in % without appending any unit label.

Worked cases, answers included:
> print(dat)
                           molecular.string  value.unit  measured.result
1  COc1ccc(-c2nnc(-c3cc(OC)c(OC)c(OC)c3)o2)cc1OCCCCCOc1cc2c(cc1OC)C(=O)N1CCC[C@H]1C=N2           %             10.4
2  COc1ccc(-c2nnc(-c3ccc(C(F)(F)F)cc3)o2)cc1OCCCOc1cc2c(cc1OC)C(=O)N1CCC[C@H]1C=N2           %             7.51
3         COc1cc2c(cc1O)N=C[C@@H]1CCCN1C2=O           %             8.02
4  COc1ccc(-c2nnc(-c3ccc(F)cc3)o2)cc1OCCCOc1cc2c(cc1OC)C(=O)N1CCC[C@H]1C=N2           %            14.14

I have this molecule here, "COc1ccc(-c2nnc(-c3ccc(OC)c(OCCCCCOc4cc5c(cc4OC)C(=O)N4CCC[C@H]4C=N5)c3)o2)cc1OC" , and I need its recorded Activity.
2.68

====

Tested on: A549
assay name: Cytotoxicity against human A549 cells after 24 hrs by WST-1 assay
Assay type: functional
condition description: A549, 24 h
Listed here: items and their measured GI50.

> print(dat)
                           molecular.string  study.system  measured.result
1  COc1ccc(-c2nnc(-c3ccc(OC)c(OCCCCOc4cc5c(cc4OC)C(=O)N4CCC[C@H]4C=N5)c3)o2)cc1OC          A549         < 100 nM
2  COc1ccc(-c2nnc(-c3ccc(OC)c(OCCCOc4cc5c(cc4OC)C(=O)N4CCC[C@H]4C=N5)c3)o2)cc1OC          A549         < 100 nM
3  COc1ccc(-c2nnc(-c3ccc(C(F)(F)F)cc3)o2)cc1OCCCCCOc1cc2c(cc1OC)C(=O)N1CCC[C@H]1C=N2          A549         < 100 nM
4  COc1ccc(-c2nnc(-c3ccc(OC)c(OCCCCCOc4cc5c(cc4OC)C(=O)N4CCC[C@H]4C=N5)c3)o2)cc1OC          A549         < 100 nM
5  COc1ccc(-c2nnc(-c3cc(OC)c(OC)c(OC)c3)o2)cc1OCCCCCOc1cc2c(cc1OC)C(=O)N1CCC[C@H]1C=N2          A549           140 nM

I am curious: what GI50 value has been reported for "COc1ccc(-c2nnc(-c3cc(OC)c(OC)c(OC)c3)o2)cc1OCCCCOc1cc2c(cc1OC)C(=O)N1CCC[C@H]1C=N2" ?
< 100 nM

// query: "COc1ccc(-c2nnc(-c3ccc(F)cc3)o2)cc1OCCCOc1cc2c(cc1OC)C(=O)N1CCC[C@H]1C=N2"
150 nM

Check "COc1ccc(-c2nnc(-c3cc(OC)c(OC)c(OC)c3)o2)cc1OCCCOc1cc2c(cc1OC)C(=O)N1CCC[C@H]1C=N2" too.
110 nM

Input "COc1ccc(-c2nnc(-c3ccc(C(F)(F)F)cc3)o2)cc1OCCCOc1cc2c(cc1OC)C(=O)N1CCC[C@H]1C=N2"
< 100 nM
